# reported GI50; entries follow
Test system: M14 melanoma
testProtocol: NCI tumour cell line growth inhibition, 48 h

Illustrative cases are given below, each with its answer.
molecule | system | measuredValue
CN(C)CC(C(=O)Cc1ccccc1)c1ccccc1 (centres undefined) | M14 melanoma | 2.34 µM
CCCCC(=O)N/N=C/c1c(O)ccc2ccccc12 | M14 melanoma | 1.82 µM
O=S1(=O)CS(=O)(=O)OCCO1 | M14 melanoma | > 78.5 µM
NCCOc1ccccc1/C=C1\c2ccccc2-c2ccc([N+](=O)[O-])cc21 | M14 melanoma | 1.65 µM
COc1cc(C2C3=C(COC3=O)Nc3c2ccc2c3CCCC2)cc2c1OCO2 (centres undefined) | M14 melanoma | 0.033 µM

QUERY: Which GI50 value is on record for COc1cc(N2CCN(C(C)C)CC2)ccc1Nc1nc(Nc2cccc(F)c2C(=O)O)c2cc[nH]c2n1 ?
RESULT: > 25 µM

QUERY: Next molecule: COc1ccc2c(Cl)cc(NC(=O)Nc3c(C)cccc3C)nc2c1
RESULT: 31.8 µM

QUERY: Next molecule: CCCCNC(=O)Oc1ccc(/C(=C(/C)Cc2ccc(OC)cc2)c2ccc(OCCN3CCCC3)cc2)cc1
RESULT: 1.81 µM

QUERY: Next molecule: C[n+]1c(-c2ccc(/C=N/NC(=O)c3ccc(C(=O)N/N=C/c4ccc(-c5cn6ccccc6[n+]5C)cc4)cc3)cc2)cn2ccccc21
RESULT: 623 µM

* * *

Tested on: UACC-62 melanoma
testProtocol: NCI tumour cell line growth inhibition, 48 h; in the data active = GI50 below about 0.43 µM; inactive = the rest
# output must be one of 1 for active, -1 for inactive

Example results:
compound | label
CCCCc1n(Cc2ccc3ccccc3c2)cc[n+]1Cc1ccc2ccccc2c1 | -1
Cc1ccc(C(SCC(N)C(=O)O)(c2ccccc2)c2ccccc2)cc1 (stereo not given) | 1
CN1CCN(Cc2ccc(NC(=O)c3cncc(C#Cc4cncc5nccnc45)c3)cc2C(F)(F)F)CC1 | -1
C=CC/C(=C\COP(=O)(OCc1ccc([N+](=O)[O-])o1)N(C)CCCCCl)CC/C=C(\C)CCC=C(C)C (stereo not given) | -1
COCCN1CCN(Cc2ccc(-c3n[nH]c4c3C(=O)c3c(NC(=O)NN5CCOCC5)cccc3-4)cc2)CC1 | 1

QUERY: # fetch the recorded call for N#Cc1c(N)nc(N)nc1N[C@H](c1nc2c(F)ccc(Cl)c2c(=O)n1-c1cccnc1)C1CC1 here
RESULT: -1

QUERY: Next compound: N=C(N)c1ccc(-c2ccc(-c3cccs3)s2)s1
RESULT: -1

QUERY: Next compound: CN1CCN(c2nc(NCCCNc3ccnc4cc(Cl)ccc34)c3ccccc3n2)CC1
RESULT: -1

QUERY: Next compound: CCCNC(=O)c1ccc(Cl)cc1Cl
RESULT: -1

QUERY: Next compound: N=C(N)c1ccc(NCCOCCNc2ccc(C(=N)N)cc2)cc1
RESULT: -1

* * *

# reported TGI; entries follow
Test system: SF-268 CNS
testProtocol: NCI tumour cell line growth inhibition, 48 h

compound | TGI
O=c1oc2ccc(Cl)cc2cc1-c1cn2ccccc2n1 | 99.3 µM

QUERY: Which TGI value is on record for CCCCN[C@H]1C2C3CC4C5CC(C42)C1(C)C53 (some centres undefined) ?
RESULT: > 100 µM

QUERY: Next compound: CN(C)S(=O)(=O)n1cnc(CO)c1
RESULT: > 100 µM

QUERY: Next compound: O=S1(=O)CCCS(=O)(=O)C(c2ccccc2)=C1c1ccccc1
RESULT: > 100 µM

QUERY: Next compound: COc1cccc2c1C(=O)c1c(O)c3c(c(O)c1C2=O)C[C@@](O)(C(=O)CO)CC3OC1CC(O)C(O)C(C)O1 (some centres undefined)
RESULT: 1.81 µM

* * *

# reported TGI; entries follow
Tested on: NCI-H23 lung
testProtocol: NCI tumour cell line growth inhibition, 48 h

compound | TGI
c1cncc(O[Si](Oc2cccnc2)(Oc2cccnc2)Oc2cccnc2)c1 | > 100 µM

QUERY: Which TGI value is on record for CN1CCN(c2nc(NCCCNc3ccnc4cc(Cl)ccc34)c3ccccc3n2)CC1 ?
RESULT: 24 µM

QUERY: Next compound: CCCCCCCCCCCCCCCC(=O)OCC1OC(OC)C2NP(=O)(N(CCCl)CCCl)OC1C2O (configuration not stated)
RESULT: 6.76 µM

* * *

# reported TGI; entries follow
Test system: HCC-2998 colon
testProtocol: NCI tumour cell line growth inhibition, 48 h
Where a SMILES comes first, the peptide text is derived from it. [ ]: non-standard residue; d: D form. The star is where a group is joined. ξ: configuration not given here. ξF = NC(Cc1ccccc1)C(=O)O; Cbz = O=C(OCc1ccccc1)*; Aib = CC(C)(N)C(=O)O

Illustrative cases are given below, each with its answer.
compound | system | measuredValue
CCc1cc2ncc(CN3CCN(c4ccc(C(=O)NC)nc4)CC3)cc2[nH]c1=O | HCC-2998 colon | > 100 µM
COc1ccc(-c2cc(-c3cc(Cl)cc(Br)c3O)[nH]c(=O)n2)cc1 | HCC-2998 colon | 45.5 µM
COc1ccc(/C=C2\CN(Cc3cn(CCNc4ccnc5cc(Cl)ccc45)nn3)C/C(=C\c3ccc(OC)c(OC)c3)C2=O)cc1OC | HCC-2998 colon | 3.62 µM
CCCCCCCCCCCCOc1ccc(/C=C/C2=[N+](CCCl)CCO2)cc1 | HCC-2998 colon | > 100 µM
CCN(CC)CCCNc1nc(=O)[nH]c(C)c1C(=O)Nc1ccc2c(c1)c1ccccc1n2CC | HCC-2998 colon | > 100 µM

QUERY: Which TGI value is on record for N=C(N)c1ccc(NCCOCCNc2ccc(C(=N)N)cc2)cc1 ?
RESULT: > 100 µM

QUERY: Next compound: COC(=O)C(C)(C)NC(=O)C(Cc1ccccc1)NC(=O)C(C)(C)NC(=O)OCc1ccccc1 (stereo not drawn) (Cbz-[Aib]-[ξF]-[Aib]-OMe)
RESULT: > 100 µM

QUERY: Next compound: CC(C)(CCCCC(C)(C)C1NC(=O)N1)C1NC(=O)N1
RESULT: > 10 µM

* * *

System: EKVX NSCLC
testProtocol: NCI tumour cell line growth inhibition, 48 h; in the data active means GI50 below about 0.43 µM; inactive means the rest
# output must be one of active, inactive

Example results:
molecule | label
NCCOc1ccccc1/C=C1\c2ccccc2-c2ccc([N+](=O)[O-])cc21 | inactive
CN(C)CC(C(=O)Cc1ccccc1)c1ccccc1 (stereo not drawn) | inactive
COc1cc(-c2n/c(=C\c3c(O)[nH]c4cc(Cl)ccc34)cc3c2=Nc2ccccc2-3)cc(OC)c1OC | inactive
C=C(CC(=O)O)C(=O)O (tested in a mixture with another compound) | inactive
Cc1ccc(C(SCC(N)C(=O)O)(c2ccccc2)c2ccccc2)cc1 (stereo not drawn) | active

QUERY: # fetch the recorded call for Cc1cc(C(=O)O)c(C)n1-c1cccc(C(=O)O)c1 here
RESULT: inactive

QUERY: Next molecule: Nc1nc(N)c2c(n1)NC(c1ccccc1)C1CCc3ccccc3C1=N2 (stereo not drawn)
RESULT: inactive

QUERY: Next molecule: COCCN1CCN(Cc2ccc(-c3n[nH]c4c3C(=O)c3c(NC(=O)NN5CCOCC5)cccc3-4)cc2)CC1
RESULT: active

QUERY: Next molecule: C[C@]12CC[C@H]3[C@@H](C[C@@H]4SC(Nc5ccccc5)=N[C@@]45CC(O)CC[C@]35C)[C@@H]1CCC2O (stereo partly drawn)
RESULT: inactive

QUERY: Next molecule: COC(=O)/C=C1/SC(N2N=C(c3cccs3)CC2c2ccc(F)cc2)=NC1=O (stereo not drawn)
RESULT: inactive

QUERY: Next molecule: COc1cc2ncnc(Nc3ccc4c(cnn4Cc4ccccc4)c3)c2cc1OC
RESULT: active

QUERY: Next molecule: Cc1[nH]c(-c2nc3ccccc3[nH]2)c(C)c1C(=O)NC(C)C1CCCCC1 (stereo not drawn)
RESULT: inactive

QUERY: Next molecule: C[n+]1c(-c2ccc(/C=N/NC(=O)c3ccc(C(=O)N/N=C/c4ccc(-c5cn6ccccc6[n+]5C)cc4)cc3)cc2)cn2ccccc21
RESULT: inactive

* * *

# reported TGI; entries follow
Tested on: SK-OV-3 ovarian
testProtocol: NCI tumour cell line growth inhibition, 48 h

QUERY: Which TGI value is on record for CC(C)(C)OC/C=C1\C(=O)O[C@H]2C[C@@H](O[Si](C)(C)C(C)(C)C)C[C@@H]12 ?
RESULT: > 100 µM

QUERY: Next compound: COc1ccc2c(Cl)cc(NC(=O)Nc3c(C)cccc3C)nc2c1
RESULT: 83 µM

QUERY: Next compound: CCCCCCOc1ccc(C(=O)N(C)O)cc1
RESULT: > 97.1 µM

QUERY: Next compound: COc1ccc(/C=C/C(=O)CC(=O)/C=C/c2ccc(OC)cc2)cc1
RESULT: > 100 µM
